- ASSAY COMMENT: Clearance in beagle dog at 2.5 mg/kg, iv by LCMS/MS method
- Type: ADME, organism-based, Canis lupus familiaris
- MEASUREMENT PARAMETERS: in vivo

- CHEMICAL SMILES: "CCn1c([C@@H](C)NS(=O)(=O)c2ccc(C#N)nc2)nc2cnc(C(F)(F)F)cc21"
  clearance: "2 mL/min/kg"

###

- TARGET ENTITY: Voltage-gated inwardly rectifying potassium channel KCNH2 (Homo sapiens)
- Sequence (Q12809 whole entry): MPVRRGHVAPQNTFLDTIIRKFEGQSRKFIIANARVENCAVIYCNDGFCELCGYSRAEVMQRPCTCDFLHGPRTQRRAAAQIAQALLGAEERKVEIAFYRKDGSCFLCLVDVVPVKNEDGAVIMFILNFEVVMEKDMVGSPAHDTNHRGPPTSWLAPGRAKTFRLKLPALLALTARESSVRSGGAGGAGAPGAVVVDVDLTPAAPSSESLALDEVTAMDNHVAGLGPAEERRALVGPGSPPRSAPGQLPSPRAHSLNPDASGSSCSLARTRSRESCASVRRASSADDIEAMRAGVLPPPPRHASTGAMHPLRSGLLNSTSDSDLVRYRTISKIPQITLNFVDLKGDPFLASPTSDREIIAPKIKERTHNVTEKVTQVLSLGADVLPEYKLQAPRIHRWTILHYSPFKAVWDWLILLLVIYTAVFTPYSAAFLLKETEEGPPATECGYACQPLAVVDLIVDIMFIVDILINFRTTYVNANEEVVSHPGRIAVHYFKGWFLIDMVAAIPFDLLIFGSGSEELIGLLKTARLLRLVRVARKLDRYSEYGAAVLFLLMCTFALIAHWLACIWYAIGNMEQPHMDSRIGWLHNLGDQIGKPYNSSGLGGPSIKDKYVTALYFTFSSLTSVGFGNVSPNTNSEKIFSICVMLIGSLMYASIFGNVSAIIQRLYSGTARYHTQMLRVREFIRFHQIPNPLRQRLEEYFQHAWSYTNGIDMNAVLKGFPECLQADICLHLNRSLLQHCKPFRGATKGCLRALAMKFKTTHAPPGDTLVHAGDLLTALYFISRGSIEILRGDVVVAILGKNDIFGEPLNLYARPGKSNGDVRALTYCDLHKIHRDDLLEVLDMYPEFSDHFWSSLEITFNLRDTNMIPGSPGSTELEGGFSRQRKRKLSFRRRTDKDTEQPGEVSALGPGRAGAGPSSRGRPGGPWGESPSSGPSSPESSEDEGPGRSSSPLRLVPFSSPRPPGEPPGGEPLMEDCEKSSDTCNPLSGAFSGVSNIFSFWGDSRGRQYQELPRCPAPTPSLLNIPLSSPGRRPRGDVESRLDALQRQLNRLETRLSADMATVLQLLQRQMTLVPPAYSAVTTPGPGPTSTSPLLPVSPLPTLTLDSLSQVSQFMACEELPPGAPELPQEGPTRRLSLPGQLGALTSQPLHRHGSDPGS
pIC50: −log10 of the molar value.

- CHEMICAL SMILES: "CCn1c([C@@H](C)NS(=O)(=O)c2ccc(C#N)nc2)nc2cnc(C(F)(F)F)cc21"
  pIC50: "< 3.70"
